In this section, each of the binders is paired with its reported OD450.
# system: T1, human CD22-ECD-His protein (human, UniProt P20273 20-687)
# T1 construct: Made in house in HEK293E; also called hCD22-ECD-His; recombinant human CD22-ECD His protein; not shown: His tag
# T1 sequence: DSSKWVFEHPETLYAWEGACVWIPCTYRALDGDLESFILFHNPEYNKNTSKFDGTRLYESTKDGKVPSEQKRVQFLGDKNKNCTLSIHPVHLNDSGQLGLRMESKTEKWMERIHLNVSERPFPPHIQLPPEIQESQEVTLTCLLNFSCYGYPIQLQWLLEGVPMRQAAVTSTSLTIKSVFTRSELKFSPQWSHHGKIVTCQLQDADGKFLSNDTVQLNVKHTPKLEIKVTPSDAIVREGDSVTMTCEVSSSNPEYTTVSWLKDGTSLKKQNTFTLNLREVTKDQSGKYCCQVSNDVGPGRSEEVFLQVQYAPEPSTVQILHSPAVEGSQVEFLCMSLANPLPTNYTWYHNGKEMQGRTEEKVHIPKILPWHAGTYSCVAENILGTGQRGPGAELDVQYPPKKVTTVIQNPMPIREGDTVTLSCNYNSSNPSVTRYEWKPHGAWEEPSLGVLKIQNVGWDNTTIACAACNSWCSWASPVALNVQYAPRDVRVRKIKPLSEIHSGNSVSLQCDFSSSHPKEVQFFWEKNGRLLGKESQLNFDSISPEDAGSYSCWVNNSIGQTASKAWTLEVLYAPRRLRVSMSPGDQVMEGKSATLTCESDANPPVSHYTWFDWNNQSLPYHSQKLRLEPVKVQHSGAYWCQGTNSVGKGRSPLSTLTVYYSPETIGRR
# procedure.text: ELISA, Ab 100.00 nM

# binder, OD450
measured = [
    ("F1.62.10 (antibody, human IgG1, kappa, V domains shown, Human-murine chimeric IgG1, kappa) VH: QVQLQQSGPELVKPGASVKISCKASGYEFSSIWMNWVKQRPGEGLEWIGRIFPGDGEINYNEKFKGKATLTADRSSTTAYMQLSSLTSEDSAVYFCAGWRIYYGTYGAMDYWGQGTSVTVSS VL: DIQMTQITSSLSASLGDRVTISCRASQDIGNYLNWYQQKPDGTVKLLIYYTSRLHSGVPSRFSGSGSRTDYSLTISNLQQEDIATYFCQQGNTLPWTFGGGTKLEIKR", "2.93 OD450"),
    ("F2.180.16 (antibody, human IgG1, lambda, V domains shown, Human-murine chimeric IgG1, lambda) VH: EVKLVESGGGLVLPGGSLKISCAASGFTFSDYYMYWIRQTPDKRLEWVAYISNTGYSTFYPDSVKGRFTVSRDNAKNTLYLQMSRLQSEDTAMYYCARHGILYAMDYWGQGTSVTVSS VL: QPVLTQSSSASFSLGASAKLTCTLSSQYSTYTIGWYQQQPLKPPKYVMELKHDGSRHTGDGIPDRFSGSSSGADRYLSISNIQPEDEATYICGVGDTIKEQFMYVFGGGTKVTVLG", "2.61 OD450"),
    ("F2.151.13 (antibody, human IgG1, lambda, V domains shown, Human-murine chimeric IgG1, lambda) VH: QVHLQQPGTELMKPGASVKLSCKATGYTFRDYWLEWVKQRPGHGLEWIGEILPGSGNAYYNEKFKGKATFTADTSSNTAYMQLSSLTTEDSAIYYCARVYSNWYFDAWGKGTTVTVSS VL: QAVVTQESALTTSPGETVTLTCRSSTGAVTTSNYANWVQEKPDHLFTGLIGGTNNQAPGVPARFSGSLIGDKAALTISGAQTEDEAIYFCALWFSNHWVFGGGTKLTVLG", "3.28 OD450"),
]
